- EXPERIMENTAL_DETAILS: Metabolic stability in human liver microsomes assessed as intrinsic clearance at 1 uM incubated for 30 mins in presence of NADPH by LC-MS/MS analysis
- Assay type: ADME, Microsome
- CONDITION_SET: liver microsomes, read-out: CLH
Here, each record is paired with measured microsomal CLint at 1 µM data.

COc1cc(F)c(-c2cccc(C(=O)O)c2)cc1C(=O)N[C@H]1[C@@H](C(=O)Nc2cccc(S(=O)(=O)C(F)(F)F)c2)[C@@H]2C=C[C@H]1C2 :: < 3 µL/min/mg

Query :: Retrieve microsomal CLint at 1 µM measured for COc1ccc(-c2cccnc2)cc1C(=O)N[C@@H]1[C@H](C(=O)Nc2cccc(S(=O)(=O)C(F)(F)F)c2)[C@H]2C=C[C@@H]1C2 (racemic) and print it.
Result :: > 300 µL/min/mg

Query :: Identify measured microsomal CLint at 1 µM corresponding to COc1cc(F)ccc1C(=O)N[C@@H]1[C@H](C(=O)Nc2cccc(S(=O)(=O)C(F)(F)F)c2)[C@H]2C=C[C@@H]1C2 (racemic)
Result :: > 300 µL/min/mg

Query :: Provide one value: measured microsomal CLint at 1 µM of `COc1cc(F)c(-c2ccc(C(=O)O)cc2)cc1C(=O)Nc1ccccc1C(=O)Nc1cccc(S(=O)(=O)C(F)(F)F)c1`
Result :: < 3 µL/min/mg

Query :: Consider the compound COc1cc(F)c(F)cc1C(=O)N[C@@H]1[C@H](C(=O)Nc2cccc(S(=O)(=O)C(F)(F)F)c2)[C@H]2C=C[C@@H]1C2 (racemic) . State its measured microsomal CLint at 1 µM.
Result :: > 300 µL/min/mg

###

- EXPERIMENTAL_DETAILS: Lipophilicity, logD of the compound in 1-octanol and phosphate buffer at pH 7.4 incubated for 3 hrs by shake flask method based LC/MS/MS analysis
- Type: physicochemical
- CONDITION_SET: 1-octanol/phosphate buffer, pH 7.4
PROPERTY_MEASURED: logD at 3 h

COc1cc(F)c(-c2ccc(C(=O)O)cc2)cc1C(=O)Nc1ccccc1C(=O)Nc1cccc(S(=O)(=O)C(F)(F)F)c1 :: > 3.9
COc1cc(F)c(-c2ccccc2)cc1C(=O)N[C@@H]1[C@H](C(=O)Nc2cccc(S(=O)(=O)C(F)(F)F)c2)[C@H]2C=C[C@@H]1C2 (racemic) :: > 3.9

Next molecule, please.
Query :: Give the value of logD at 3 h reported for the following: `CC(C)Oc1ccccc1C(=O)Nc1ccccc1C(=O)Nc1cccc(S(=O)(=O)C(F)(F)F)c1`
Result :: > 4

###

Reported CL free values for a set of compounds
- EXPERIMENTAL_DETAILS: Metabolic stability in cryopreserved human hepatocytes assessed as unbound intrinsic clearance measured per 10^6 cells at 1 uM measured after 120 mins by LC-MS/MS analysis
- Type: ADME, cell-based, Hepatocyte
- CONDITION_SET: 2 h

Known results for compounds:
COc1cc(F)c(-c2ccc(S(N)(=O)=O)cc2)cc1C(=O)N[C@@H]1[C@H]2CC[C@H](C2)[C@@H]1C(=O)Nc1cccc(S(=O)(=O)C(F)(F)F)c1 :: 7.8 10^3uL/min
COc1cc(F)c(-c2ccc(C(=O)O)cc2)cc1C(=O)N[C@@H]1[C@H]2CC[C@H](C2)[C@@H]1C(=O)Nc1cccc(S(=O)(=O)C(F)(F)F)c1 :: 1.3 10^3uL/min
COc1cc(F)c(-c2ccc(C(=O)O)cc2)cc1C(=O)Nc1ccccc1C(=O)Nc1cccc(S(=O)(=O)C(F)(F)F)c1 :: 3.9 10^3uL/min
COc1ccccc1C(=O)Nc1ccccc1C(=O)Nc1cccc(S(=O)(=O)C(F)(F)F)c1 :: 0.96 10^3uL/min

Now look at this entry.
Query :: Hello, please tell me recorded CL free for this one: `CC(C)Oc1ccccc1C(=O)Nc1ccccc1C(=O)Nc1cccc(S(=O)(=O)C(F)(F)F)c1`
Result :: 3.07 10^3uL/min

###

- EXPERIMENTAL_DETAILS: Metabolic stability in human liver microsomes assessed as unbound intrinsic clearance at 1 uM incubated for 30 mins in presence of NADPH by LC-MS/MS analysis
- Format: ADME, Microsome
- CONDITION_SET: 0.5 h
Recorded CL free, one value per entry.

Query :: Specify CL free for `CC(C)Oc1ccccc1C(=O)Nc1ccccc1C(=O)Nc1cccc(S(=O)(=O)C(F)(F)F)c1` and stop.
Result :: 37 10^3uL/min/mg

Query :: Return CL free (reported value) for this compound: `COc1cc(F)c(-c2ccc(C[C@H](C(=O)O)N(C)C)cc2)cc1C(=O)N[C@@H]1[C@H]2CC[C@H](C2)[C@@H]1C(=O)Nc1cccc(S(=O)(=O)C(F)(F)F)c1`
Result :: 1.1 10^3uL/min/mg

Query :: Tell us which CL free value is on record for COc1ccccc1C(=O)N[C@H]1[C@@H](C(=O)Nc2cccc(S(=O)(=O)C(F)(F)F)c2)[C@H]2C=C[C@@H]1C2 (racemic)
Result :: 0.35 10^3uL/min/mg
